# Test system: MALME-3M melanoma
# TEST_METHOD_NOTES: NCI tumour cell line growth inhibition, 48 h
MEASURE: TGI (µM)
# output: bare number, implied unit µM

Could you please provide reported TGI for COc1ccc(-c2cc(-c3ccc(Cl)cc3)nc(SCCCC(=O)NO)n2)cc1OC ? Thanks!
5.64

Could you please provide reported TGI for COc1cc2c(SCCN(C)C)nc3ccccc3c2c2ccccc12 ? Thanks!
3.99

Could you please provide reported TGI for CCOC(=O)CCCc1cc(=O)c2c(C)c3[nH]c4ccc(Cl)cc4c3c(C)c2[nH]1 ? Thanks!
73.2

Could you please provide reported TGI for CN1CCN(CCCCCOc2cc(O)c3c(=O)cc(-c4ccccc4)oc3c2)CC1 ? Thanks!
4.31

Could you please provide reported TGI for C=C(CN(C)C)C(=O)c1ccccc1 ? Thanks!
11.1

----------
Reported GI50 by item:
# Test system: NCI-H226 lung
# TEST_METHOD_NOTES: NCI tumour cell line growth inhibition, 48 h

Reference set, count: 7
[
  {
    "COMPOUND": "CCCCCCCCCCCCCCCC(=O)OCC1OC(OCCCC)[C@H](O[C@@H]2OC(C)C(OC(=O)CCC)C(O)C2O)C(O)C1O (stereo partly drawn)",
    "REPORTED_VALUE": "16.8 µM"
  },
  {
    "COMPOUND": "Cn1ccc(S(=O)(=O)N2CCC[C@H](Nc3nccc(-c4c(-c5cccc(O)c5)nc5occn45)n3)C2)n1",
    "REPORTED_VALUE": "11.5 µM"
  },
  {
    "COMPOUND": "CC(C)N(CCNc1nc(C(Cl)(Cl)Cl)nc2cc(Cl)ccc12)C(C)C",
    "REPORTED_VALUE": "1.68 µM"
  },
  {
    "COMPOUND": "N=C1C(c2nc3ccccc3c(=O)[nH]2)=C(O)CN1c1cccc(Cl)c1",
    "REPORTED_VALUE": "> 100 µM"
  },
  {
    "COMPOUND": "CCN(CC)CCOc1ccc2c(-c3ccccc3)c(-c3ccc(OC)cc3)c(=O)oc2c1",
    "REPORTED_VALUE": "13.6 µM"
  },
  {
    "COMPOUND": "CN1CCC(=C(c2ccc(Cl)cc2)c2ccccn2)CC1",
    "REPORTED_VALUE": "90.2 µM"
  },
  {
    "COMPOUND": "COc1cccc(N2C(=N)/C(=C3\\Nc4ccccc4S3)CC2=O)c1",
    "REPORTED_VALUE": "38.3 µM"
  }
]

Could you please provide reported GI50 for C=CCc1cc(O)ccc1O ? Thanks!
44.2 µM

----------
# Test system: PC-3 prostate
# TEST_METHOD_NOTES: NCI tumour cell line growth inhibition, 48 h
Reported TGI by item:

Could you please provide reported TGI for C/C(=N\O)C1CC(CC(=O)O)C1(C)C (stereo unspecified) ? Thanks!
> 100 µM

Could you please provide reported TGI for COC(=O)NCCc1[nH]nc2c1C(=O)C=C(Nc1ccccc1OC)C2=O ? Thanks!
> 100 µM

Could you please provide reported TGI for O=C(O)c1cc(-c2ccc(-c3ccccc3)cc2)nc2cc3ccccc3cc12 ? Thanks!
> 100 µM

Could you please provide reported TGI for O=C(O[C@H](/C=C/c1ccccc1)P1(=O)N(Cc2ccccc2)[C@H]2CCCC[C@@H]2N1Cc1ccccc1)c1ccccc1 ? Thanks!
> 100 µM

Could you please provide reported TGI for COC(=O)c1ccccc1C1CN=NC12Cc1cc3c(cc1C2=O)CCC3 (stereo unspecified) ? Thanks!
> 100 µM

Could you please provide reported TGI for CN(C)C/C=C/C(=O)Nc1ccc(C(=O)Nc2cccc(Nc3ncc(Cl)c(-c4c[nH]c5ccccc45)n3)c2)cc1 ? Thanks!
0.191 µM

----------
# Tested on: UACC-62 melanoma
# TEST_METHOD_NOTES: NCI tumour cell line growth inhibition, 48 h
MEASURE: TGI

[
  {
    "COMPOUND": "Cc1[nH]c(N)nc(=S)c1CCCNc1ccccc1",
    "MEASURE": "TGI",
    "REPORTED_VALUE": "> 100 µM"
  }
]

Could you please provide reported TGI for CN(C)C/C=C/C(=O)Nc1ccc(C(=O)Nc2cccc(Nc3ncc(Cl)c(-c4c[nH]c5ccccc45)n3)c2)cc1 ? Thanks!
0.259 µM

Could you please provide reported TGI for CC(=O)OC[C@@]1(C)[C@@H]2[C@@H]3[C@@]4(CO[C@]3(C)C(=O)[C@@]3(OC(C)=O)C[C@H](C)[C@H](OC(C)=O)[C@@H]3[C@H]4OC(C)=O)[C@H](OC(=O)c3ccccc3)C[C@@H]21 ? Thanks!
> 100 µM

Could you please provide reported TGI for CNc1ccc(C)cc1S(=O)(=O)c1ccccc1[N+](=O)[O-] ? Thanks!
> 100 µM

Could you please provide reported TGI for COc1cc(O)c2c(c1C)C(C)(O)c1c(C)coc1C2=O (stereo not given) ? Thanks!
> 100 µM

Could you please provide reported TGI for Oc1ccc(/C=N/NC(=S)Nc2ccccc2)nc1 ? Thanks!
4.95 µM

Could you please provide reported TGI for COc1ccc(/C=N/NS(=O)(=O)c2ccc(/C=C3\NC(=O)NC3=O)cc2)cc1 ? Thanks!
> 100 µM

Could you please provide reported TGI for OCC1NC(CO)C(O)C1O (stereo not given) ? Thanks!
> 100 µM

Could you please provide reported TGI for COc1cc(C2C=C(C)N=C3SC=C(C)N32)cc(OC)c1OC (stereo not given) ? Thanks!
1.87 µM

Could you please provide reported TGI for CC(=O)c1ccc(NC(=O)C(=O)CC(=O)c2sc(-n3nc(-c4ccccc4)cc3-c3ccccc3)nc2C)cc1 ? Thanks!
> 100 µM

----------
# Tested on: SK-MEL-2 melanoma
# TEST_METHOD_NOTES: NCI tumour cell line growth inhibition, 48 h
MEASURE: GI50

Reference set, count: 4
[
  {
    "SMILES_REPRESENTATION": "Cc1cc(NS(=O)(=O)c2ccc(-c3cnc(C4CC4)o3)cc2)ccc1Cl",
    "GI50": "445 nM"
  },
  {
    "SMILES_REPRESENTATION": "O=C1NC(=NCCc2ccccc2F)S/C1=C\\c1ccc2ncccc2c1",
    "GI50": "6160 nM"
  },
  {
    "SMILES_REPRESENTATION": "Cn1ccc(S(=O)(=O)N2CCC[C@H](Nc3nccc(-c4c(-c5cccc(O)c5)nc5occn45)n3)C2)n1",
    "GI50": "444 nM"
  },
  {
    "SMILES_REPRESENTATION": "Oc1ccc(/C=N/NC(=S)Nc2ccccc2)nc1",
    "GI50": "1540 nM"
  }
]

Could you please provide reported GI50 for N=C1C(c2nc3ccccc3c(=O)[nH]2)=C(O)CN1c1cccc(Cl)c1 ? Thanks!
> 100000 nM

Could you please provide reported GI50 for Oc1c(Cl)cc(Cl)c(Cl)c1Cc1c(O)c(Cl)cc(Cl)c1Cl ? Thanks!
497 nM

----------
# Test system: MCF7 breast
# TEST_METHOD_NOTES: NCI tumour cell line growth inhibition, 48 h
Reported TGI by item:

Reference set, count: 2
[
  {
    "COMPOUND": "N#Cc1c(-c2ccccc2)nc(SCC(O)CN2CCOCC2)nc1N1CCOCC1 (centres undefined)",
    "REPORTED_VALUE": "8.51 µM"
  },
  {
    "COMPOUND": "O=C(O)C1CC[N-]CC1.O=C(O)C1CC[N-]CC1.[NH2-].[NH2-].[Pt+4]",
    "REPORTED_VALUE": "> 100 µM"
  }
]

Could you please provide reported TGI for COC(=O)C1C(=O)C(C(=O)OC)C2CCC1N2C (centres undefined) ? Thanks!
> 100 µM

Could you please provide reported TGI for CC(=O)NC(CCc1ccc(Cl)c(Cl)c1)c1cccc(O)c(=O)c1 (centres undefined) ? Thanks!
37.4 µM

Could you please provide reported TGI for O=C(Oc1ccc(C(c2c(O)c3ccccc3oc2=O)c2c(O)c3ccccc3oc2=O)cc1)c1ccc(C(=O)c2ccccc2)cc1 ? Thanks!
> 100 µM

Could you please provide reported TGI for COc1ccc(/C=C/C(=O)C(=O)/C=C/c2ccc(OC)c(OC)c2)cc1OC ? Thanks!
9.48 µM

Could you please provide reported TGI for O=C(O[C@H](/C=C/c1ccccc1)P1(=O)N(Cc2ccccc2)[C@H]2CCCC[C@@H]2N1Cc1ccccc1)c1ccccc1 ? Thanks!
> 100 µM

Could you please provide reported TGI for CCN(CC)CCOc1ccc(/C(=C(\C)Cc2ccc(OC)cc2)c2ccc(O)cc2)cc1 ? Thanks!
2.3 µM

Could you please provide reported TGI for CC(=O)OC[C@@]1(C)[C@@H]2[C@@H]3[C@@]4(CO[C@]3(C)C(=O)[C@@]3(OC(C)=O)C[C@H](C)[C@H](OC(C)=O)[C@@H]3[C@H]4OC(C)=O)[C@H](OC(=O)c3ccccc3)C[C@@H]21 ? Thanks!
> 100 µM

Could you please provide reported TGI for O=Nn1c2ccccc2c2ccccc21 ? Thanks!
> 100 µM

Could you please provide reported TGI for CCOC(=O)/C1=C(\C)N(Cc2ccccc2)C(=O)c2ccccc2C(=O)c2c(OC(C)=O)ccc(OC(C)=O)c21 ? Thanks!
58.6 µM

Could you please provide reported TGI for C=C1CC[C@@](C)(c2cc(Br)c(C)cc2OC(C)=O)[C@H]1C ? Thanks!
28 µM

Could you please provide reported TGI for Cc1ccc2c(-c3ccnc(Nc4cccc(C(F)(F)F)c4)n3)c(-c3ccccc3)nn2n1 ? Thanks!
> 25 µM
